METHOD DESCRIPTION: clinical
RECORDED CONDITIONS: human, plasma, intravenous, 1.32 mg/m2
READOUT KIND: Cmax (ng/mL)
Express it in ng/mL; write the number only.

Q: // query Cmax value for entry `CCc1cnn2c(NCc3ccc[n+]([O-])c3)cc(N3CCCC[C@H]3CCO)nc12`
Ans: 69.5

###

METHOD DESCRIPTION: clinical
RECORDED CONDITIONS: human, plasma, intravenous, 1.85 mg/m2
READOUT KIND: AUC(0-t) (ng·h/mL)
Express it in ng·h/mL; write the number only.

Q: // query AUC(0-t) value for entry `CCc1cnn2c(NCc3ccc[n+]([O-])c3)cc(N3CCCC[C@H]3CCO)nc12`
Ans: 216

Just for reference, paper PMC3853718 is where these values come from.
